tested on: HCT-116 colon; assay: NCI-60 one-dose screen, 48 h (100 = growth as untreated, 0 = no growth, -100 = all killed); conditions: 10 µM unless noted
About 83,000 compounds went through this panel and 20% of them were active in at least one assay; those are over-represented in the sample as a whole.
# label = t if growth < 40% else f

Some solved cases for reference:
INSERT INTO measurements (molecule, label_value) VALUES
  ('O=C1c2c(c3c4cccnc4[nH]c3c3ccc4ccccc4c23)C(=O)N1CCO', 'f'),
  ('Cc1cc(C(=O)Nc2sc3c(c2C(N)=O)CCC(=O)C3)ccc1OCCN1CCCCC1', 'f'),
  ('COC(=O)C1CCCN(S(=O)(=O)/N=C2\NC(=O)NC2=C(Cl)Cl)C1 (centres undefined)', 'f'),
  ('CCOC(=O)c1c(Nc2ccccc2)nn2c(N)c(C#N)c(-c3ccc(Cl)cc3)nc12', 'f'),
  ('CC(=O)Oc1ccccc1C(=O)Nc1ccc(C(=O)/C=C/c2ccncc2)cc1', 't');

Is growth strictly under 40% for the entry "CN(C)CCCOc1c2ccc(Cl)cc2nc2c1oc1ccc(Cl)cc12" ? t

Lab note: confirm whether the reported growth for this molecule is below 40%, equality not counting. molecule: "CCC/C=C/C=C/C(=O)N[C@@H](Cc1cc(F)cc(F)c1)C(=O)N[C@@H]1C(=O)N2CCC[C@H]2C(=O)N2CCCC[C@H]2C(=O)N[C@@H](C)C(=O)N2C[C@H](C)C[C@H]2C(=O)O[C@H]1C" t

----------
As shown below, each of these compounds has a reported growth value.
test system: MALME-3M melanoma; assay: NCI-60 one-dose screen, 48 h (100 = growth as untreated, 0 = no growth, -100 = all killed); conditions: 10 µM unless noted
Compounds without any hit were thinned out: in the full panel of roughly 83,000, 20% have a hit. Activity calls are given as the source filed them. Rule for the calls: active = growth percent below 10; inactive = the rest.

Recorded results for 8 compounds are shown here.
INSERT INTO measurements (compound, target_system, property_name, result) VALUES
  ('CCCC(=O)NC(c1ccc2c(c1)OC(F)(F)O2)c1cc(C)c2cccnc2c1O (stereo not given)', 'MALME-3M melanoma', 'growth', '14.4% (inactive)'),
  ('C=CCn1c(SCC(=O)c2ccccc2)nnc1-c1c[nH]c2ccccc12', 'MALME-3M melanoma', 'growth', '86.6% (inactive)'),
  ('O=[N+]([O-])c1ccc(O)c2ncccc12', 'MALME-3M melanoma', 'growth', '38% (inactive)'),
  ('O=C1Nc2cc(Cl)ccc2/C1=C\c1ccc(OCc2ccc(Br)cc2F)cc1', 'MALME-3M melanoma', 'growth', '-66.9% (active)'),
  ('O=C1Nc2ccc(Cl)cc2/C1=C/c1ccc(OCC(=O)c2ccc(Br)cc2)cc1', 'MALME-3M melanoma', 'growth', '84.5% (inactive)'),
  ('Cc1nc(-c2cc3ccccc3oc2=O)ccc1C(=O)/C=C/c1ccccn1', 'MALME-3M melanoma', 'growth', '88.3% (inactive)'),
  ('N#Cc1nc(-c2ccccc2)oc1N1CC[C@@H](CO)C1', 'MALME-3M melanoma', 'growth', '110% (inactive)'),
  ('CC(C)(O)c1cncc(-c2ccc3ncnc(N4CCc5cc(F)c(Cl)cc54)c3c2)c1', 'MALME-3M melanoma', 'growth', '16.1% (inactive)');

Looking for the measured growth of "CN(C)c1ccc(-c2c(NC(C)(C)C)nc3c(OCCc4ccccc4)cccn23)cc1" , can you help? 12.9% (inactive)

Returns the measured growth for the input compound. Input: "N#Cc1ccc(/C=N/NC(=O)c2[nH]c3ccc(Br)cc3c2-c2ccccc2)s1" 50.1% (inactive)

Fill in: growth of "Nc1c(C(=O)c2ccc(Br)cc2)oc2nc(-c3cnccn3)cc(-c3cccs3)c12" is ___ 102% (inactive)
